Source of measurements: PubChem BioAssay (Tox21)

# MEASUREMENT NOTES: qHTS assay to identify small molecule antagonists of the progesterone receptor (PR) signaling pathway - cell viability counter screen (AID 1346798); further: nearly all actives have a fitted effect of over 50% in size
# CONDITIONS USED: PR-UAS-bla HEK293T viability, CellTiter-Glo luminescence, 16 h; series mostly up to 42.5 µM
Inconclusive results are not listed. Active and inactive are the calls of the source. The call rests on the fitted dose curve; in most records, active means well fitted cell-killing curve with a large enough effect in the repeat runs; inconclusive means weak or mixed curves, or effect the other way; inactive means no such curve, though single readings can be large or run the other way.
Labels: Yes (active), No (inactive)

>  <COMPOUND>
O=C1CCC(C2CCCCC2)CC1

>  <ASSIGNED CLASS>
No

$$$$
>  <COMPOUND>
CN1CCN(c2c(F)cc3c(=O)c(C(=O)O)cn(CCF)c3c2F)CC1

>  <ASSIGNED CLASS>
No

$$$$
>  <COMPOUND>
COc1cc2c(cc1N)oc1ccccc12

>  <ASSIGNED CLASS>
No

$$$$
>  <COMPOUND>
Cc1onc(-c2ccccc2)c1C(=O)Cl

>  <ASSIGNED CLASS>
No

$$$$
>  <COMPOUND>
CCCCCCOc1ccc(N)cc1

>  <ASSIGNED CLASS>
No

$$$$
>  <COMPOUND>
CCCOCCC

>  <ASSIGNED CLASS>
No

$$$$
>  <COMPOUND>
CCCCNC(=S)NCCCC

>  <ASSIGNED CLASS>
Yes

$$$$
>  <COMPOUND>
OCCN(CCO)c1ccccc1

>  <ASSIGNED CLASS>
No

$$$$
>  <COMPOUND>
O=C(CCCl)NCc1ccccc1

>  <ASSIGNED CLASS>
No

$$$$
>  <COMPOUND>
CCOc1ccc(OCC)c(Cl)c1

>  <ASSIGNED CLASS>
No

$$$$
>  <COMPOUND>
CCOc1ccccc1N

>  <ASSIGNED CLASS>
No

$$$$
>  <COMPOUND>
C[C@@H](N)C(=O)O

>  <ASSIGNED CLASS>
No

$$$$
>  <COMPOUND>
COc1ccc2nc(NC(=O)Nc3ccccc3)sc2c1

>  <ASSIGNED CLASS>
No

$$$$
>  <COMPOUND>
CCC(=O)c1ccc2c(c1)N(CCCN(C)C)c1ccccc1S2

>  <ASSIGNED CLASS>
No

$$$$
>  <COMPOUND>
CC(C)NCC(O)COc1ccc(CCOCC2CC2)cc1 (configuration not stated)

>  <ASSIGNED CLASS>
No

$$$$
>  <COMPOUND>
COc1ccccc1OCC(O)COC(N)=O (configuration not stated)

>  <ASSIGNED CLASS>
No

$$$$
>  <COMPOUND>
Oc1ccccc1C=NCc1ccccc1

>  <ASSIGNED CLASS>
No

$$$$
>  <COMPOUND>
FC(F)(F)C(F)(F)C(F)(F)C(F)(F)C(F)(F)C(F)(F)C(F)(F)C(F)(F)Br

>  <ASSIGNED CLASS>
No

$$$$
>  <COMPOUND>
Cc1nc(N)nc(N)c1-c1ccc(Cl)c(Cl)c1

>  <ASSIGNED CLASS>
No

$$$$
>  <COMPOUND>
C=CCCC=C

>  <ASSIGNED CLASS>
No

$$$$
>  <COMPOUND>
CCCS(=O)c1ccc2nc(NC(=O)OC)[nH]c2c1 (configuration not stated)

>  <ASSIGNED CLASS>
No

$$$$
>  <COMPOUND>
CC(C)(C)c1cccc(O)c1

>  <ASSIGNED CLASS>
No

$$$$
>  <COMPOUND>
CCc1cc2cc(OC)c(OC)cc2c(Cc2ccccc2)n1

>  <ASSIGNED CLASS>
No

$$$$
>  <COMPOUND>
O=c1[nH]c(=O)n([C@H]2C[C@H](O)[C@@H](CO)O2)cc1C(F)(F)F

>  <ASSIGNED CLASS>
No

$$$$
>  <COMPOUND>
COc1cc(Cl)ccc1Cl

>  <ASSIGNED CLASS>
No

$$$$
>  <COMPOUND>
CCCOc1ccc2c(c1)CC[C@@H]1[C@@H]2CC[C@]2(C)C(OC)CC[C@@H]12 (some centres not stated)

>  <ASSIGNED CLASS>
No

$$$$
>  <COMPOUND>
CC(CNC1CCCCC1)OC(=O)c1ccccc1 (configuration not stated)

>  <ASSIGNED CLASS>
No

$$$$
>  <COMPOUND>
Cn1cnc2c(F)c(Nc3ccc(Br)cc3Cl)c(C(=O)NOCCO)cc21

>  <ASSIGNED CLASS>
No

$$$$
>  <COMPOUND>
CC(=O)Nc1ccc(C)c(Cl)c1

>  <ASSIGNED CLASS>
No

$$$$
>  <COMPOUND>
Cc1cn([C@@H]2O[C@H](CO)[C@@H](O)[C@@H]2F)c(=O)[nH]c1=O

>  <ASSIGNED CLASS>
No

$$$$
>  <COMPOUND>
CN(CC1(C)CCCO1)S(=O)(=O)c1ccc(Cl)c(S(N)(=O)=O)c1 (configuration not stated)

>  <ASSIGNED CLASS>
No

$$$$
>  <COMPOUND>
CC(=O)N[C@@H](CC(C)C)C(=O)O

>  <ASSIGNED CLASS>
No

$$$$
>  <COMPOUND>
CCCCNCCCC

>  <ASSIGNED CLASS>
No

$$$$
>  <COMPOUND>
CCN1CC(CCN2CCOCC2)C(c2ccccc2)(c2ccccc2)C1=O (configuration not stated)

>  <ASSIGNED CLASS>
No

$$$$
>  <COMPOUND>
CC(C)C[C@H](NC(=O)OCC1c2ccccc2-c2ccccc21)C(=O)O

>  <ASSIGNED CLASS>
No

$$$$
>  <COMPOUND>
CCCNC(C)(C)COC(=O)c1ccccc1

>  <ASSIGNED CLASS>
No

$$$$
>  <COMPOUND>
CC/C=C\CCOC(=O)C(C)C

>  <ASSIGNED CLASS>
No

$$$$
>  <COMPOUND>
Nc1ccc2ccccc2c1S(=O)(=O)O

>  <ASSIGNED CLASS>
No

$$$$
>  <COMPOUND>
Clc1cccc(-c2cc(Cl)cc(Cl)c2)c1

>  <ASSIGNED CLASS>
No

$$$$
>  <COMPOUND>
C=CC1CO1 (configuration not stated)

>  <ASSIGNED CLASS>
No

$$$$
>  <COMPOUND>
CC(=O)Oc1cc(C(C)C)c(OCCN(C)C)cc1C

>  <ASSIGNED CLASS>
No

$$$$
>  <COMPOUND>
CC(=O)N(CC(O)CN(C(C)=O)c1c(I)c(C(=O)NCC(O)CO)c(I)c(C(=O)NCC(O)CO)c1I)c1c(I)c(C(=O)NCC(O)CO)c(I)c(C(=O)NCC(O)CO)c1I (configuration not stated)

>  <ASSIGNED CLASS>
No

$$$$
>  <COMPOUND>
O=C(CC(=O)C(F)(F)F)c1ccccc1

>  <ASSIGNED CLASS>
No

$$$$
>  <COMPOUND>
CCN(O)CC

>  <ASSIGNED CLASS>
No

$$$$
>  <COMPOUND>
C=CC(C)(O)CC/C=C(\C)CCC=C(C)C (configuration not stated)

>  <ASSIGNED CLASS>
No

$$$$
>  <COMPOUND>
O=C(O)C(=O)Cc1c[nH]c2ccccc12

>  <ASSIGNED CLASS>
No

$$$$
>  <COMPOUND>
CC(=O)OC1C2(C)CCC(C2)C1(C)C (configuration not stated)

>  <ASSIGNED CLASS>
No

$$$$
>  <COMPOUND>
Cc1ccc(C)c(N)c1

>  <ASSIGNED CLASS>
No

$$$$
>  <COMPOUND>
CCN(CC)CCNC(=O)COc1ccc(Cl)cc1

>  <ASSIGNED CLASS>
No

$$$$
>  <COMPOUND>
Cc1cc(NS(=O)(=O)c2ccc(N)cc2)nc(C)n1

>  <ASSIGNED CLASS>
No

$$$$
>  <COMPOUND>
NC1=NCC2c3ccccc3Cc3ccccc3N12 (configuration not stated)

>  <ASSIGNED CLASS>
No

$$$$
>  <COMPOUND>
CC(C)=CCCC(C)CCOC=O (configuration not stated)

>  <ASSIGNED CLASS>
No

$$$$
>  <COMPOUND>
NC/C=C/C(=O)O

>  <ASSIGNED CLASS>
No

$$$$
>  <COMPOUND>
OCc1c2ccccc2cc2ccccc12

>  <ASSIGNED CLASS>
No

$$$$
>  <COMPOUND>
CCOC(=O)CS

>  <ASSIGNED CLASS>
No

$$$$
>  <COMPOUND>
O=C1N(c2ccccc2)c2ccccc2C1(Cc1ccncc1)Cc1ccncc1

>  <ASSIGNED CLASS>
No

$$$$
>  <COMPOUND>
OCCN1CCN(CCO)CC1

>  <ASSIGNED CLASS>
No

$$$$
